Origin of measurements: paper PMC5770965

# TGT: KIX domain of CBP (UniProt P45481 586-665)
# Sequence (P45481 586-665): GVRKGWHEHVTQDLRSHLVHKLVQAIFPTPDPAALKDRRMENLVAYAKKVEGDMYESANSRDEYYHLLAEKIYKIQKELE
# PROTOCOL_DETAILS: fluorescence polarisation; equilibrium fluorescence anisotropy; KIX titrated into N-terminally FITC-labelled pKID peptide; biophysical buffer and conditions as in the accompanying article (ref. 42); KdEqub
# CONDITION: both partners purified
Non-standard residues stand in square brackets, D forms with d. No end group written: not given here. *: point of attachment. FITC = O=C1OC2(c3ccc(O)cc3Oc3cc(O)ccc32)c2ccc(NC(=S)*)cc21; pS = N[C@@H](COP(=O)(O)O)C(=O)O
ENDPOINT_NAME: Kd (nM)
Quick reminder: number only, in nM, skip the unit.

# annotated cases, reported Kd shown
{FITC}-DSVTDSQKRREILSRRP[pS]YRKILNDLSGDAP (peptide, UniProt P15337-1 116-146, looked up, the text prints S143G; also called A143G; source: synthetic peptide, bought: Biomatik) [FITC-pKID S143G] | 90
{FITC}-DSVTDSQKRREILSRRP[pS]YAKILNDLSSDAP (peptide, UniProt P15337-1 116-146, looked up, source: synthetic peptide, bought: Biomatik) [FITC-pKID R135A] | 100

Okay, now this binder:
Reported Kd, binder {FITC}-DSVTDSQKRREILSRRA[pS]YRKILNDLSSDAP (peptide, UniProt P15337-1 116-146, looked up, source: synthetic peptide, bought: Biomatik) [FITC-pKID P132A] : ____
70
